From: the Immune Epitope Database (IEDB)

Biological target: HLA-A*26:01
Test: IEDB peptide-MHC binding, purified MHC/competitive/radioactivity; filed as Kd, often an IC50 or EC50 that approximates it; bounds were set here for any values at or beyond the usual limits of such assays
Details: source organism: Mammarenavirus whitewaterense
property.name: Kd

In plain terms, YVNHTGFNV has a documented Kd of ≥ 53.6 µM

====

The following sequences are shown together with reported Kd values.
Target: HLA-A*02:17
Experiment: IEDB peptide-MHC binding, purified MHC/competitive/radioactivity; filed as Kd, often an IC50 or EC50 that approximates it; bounds were set here for any values at or beyond the usual limits of such assays
Conditions: source organism: Dengue virus 1 Singapore/S275/1990
Expressed in nM, but write only the number.

{"sequence.data": "FLAIPPTAGI", "Kd [nM]": 4.2}

// field: Kd; key: ILLMRTTWAL ; value = 21.7

====

Biological target: HLA-B*45:06
Experiment: IEDB peptide-MHC binding, purified MHC/competitive/fluorescence; filed as Kd, often an IC50 or EC50 that approximates it; bounds were set here for any values at or beyond the usual limits of such assays
Conditions: source organism: dengue virus type 1
pKd: −log10 of the molar value.
property.name: pKd

Lookup result for ATYGWNLVK ; measured pKd: ≤ 5.30

====

Molecular target: HLA-B*44:02
Test: IEDB peptide-MHC binding, purified MHC/competitive/radioactivity; filed as Kd, often an IC50 or EC50 that approximates it; bounds were set here for any values at or beyond the usual limits of such assays
Conditions: source organism: Lassa virus Josiah
property.name: pKd
Convention used: pKd is expressed as -log10 of the molar concentration.

The reported value for AEAQMSIQL in terms of pKd is 7.43

====

Target: HLA-A*24:03
Test: IEDB peptide-MHC binding, purified MHC/competitive/fluorescence; filed as Kd, often an IC50 or EC50 that approximates it; bounds were set here for any values at or beyond the usual limits of such assays
Settings: source organism: Mycobacterium tuberculosis C
property.name: Kd

For reference, reported Kd for SLVAIHLAC stands at ≥ 20 µM

====

Kd for assorted sequences
Target: HLA-A*24:02
Experiment: IEDB peptide-MHC binding, purified MHC/competitive/radioactivity; filed as Kd, often an IC50 or EC50 that approximates it; bounds were set here for any values at or beyond the usual limits of such assays
Settings: source organism: Mammarenavirus whitewaterense
Quick note: give the figure in µM, leave out the unit.

{"sequence.data": "SYKIGHHVEL", "Kd [µM]": 12.9}

API: the following record is the query input.
Summary for this sequence, PYVPMPCMI : Kd is 0.0574

====

Target: HLA-B*15:01
Experiment: IEDB peptide-MHC binding, purified MHC/direct/fluorescence; filed as Kd, often an IC50 or EC50 that approximates it; bounds were set here for any values at or beyond the usual limits of such assays
Conditions: source organism: Rickettsia conorii
property.name: pKd
// field semantics: pKd = negative decimal log of concentration (mol/L)

Log: HLA-B*15:01, sequence YFSDVSAPV , pKd = 6.15

====

Biological target: HLA-B*07:02
Assay: IEDB peptide-MHC binding, purified MHC/competitive/fluorescence; filed as Kd, often an IC50 or EC50 that approximates it; bounds were set here for any values at or beyond the usual limits of such assays
Details: source organism: Bacillus anthracis str. A0488
pKd: −log10 of the molar value.
property.name: pKd

Data point: FVMPIFEQI ; pKd = ≤ 5.30
